- system_under_test: T1, human NMI (N-myc Interacting protein), recombinant protein (human, UniProt Q13287 1-307, limits assumed)
- T1 construct: Gene ID: 9111; also called hNMI; antigen
- T1 sequence (looked up): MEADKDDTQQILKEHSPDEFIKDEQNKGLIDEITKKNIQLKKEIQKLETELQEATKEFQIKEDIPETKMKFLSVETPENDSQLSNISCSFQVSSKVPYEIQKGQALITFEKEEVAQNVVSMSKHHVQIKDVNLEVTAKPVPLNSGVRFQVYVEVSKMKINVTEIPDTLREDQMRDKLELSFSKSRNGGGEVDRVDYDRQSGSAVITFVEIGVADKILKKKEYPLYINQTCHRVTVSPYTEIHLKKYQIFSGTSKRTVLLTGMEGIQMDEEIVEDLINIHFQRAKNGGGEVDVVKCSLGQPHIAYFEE
- assay_info: ELISA, binding to hNMI
observed_property: pEC50
// pEC50: -log10(molar conc.)

binder	experimental_value
98G10-11 (antibody, V domains shown, also called 98G10 Q70D (VL)) VH: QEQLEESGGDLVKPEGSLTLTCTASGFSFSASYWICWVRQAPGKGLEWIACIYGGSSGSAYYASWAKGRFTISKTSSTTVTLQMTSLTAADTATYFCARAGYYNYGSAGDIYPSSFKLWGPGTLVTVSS VL: DIVMTQTPASVEAAVGGTVTINCQASQSISTALAWYQQKPGQPPKLLIYTASKVASGVPSRFSGSGSGTDFTLTISDLECADAATYYCQNYYYSSSSITFGGGTEVVVK	10.18

Looking up 98G10-3 (antibody, V domains shown, also called 98G10 T81Y (VH), C80P (VL)) VH: QEQLEESGGDLVKPEGSLTLTCTASGFSFSASYWICWVRQAPGKGLEWIACIYGGSSGSAYYASWAKGRFTISKTSSTTVYLQMTSLTAADTATYFCARAGYYNYGSAGDIYPSSFKLWGPGTLVTVSS VL: DIVMTQTPASVEAAVGGTVTINCQASQSISTALAWYQQKPGQPPKLLIYTASKVASGVPSRFSGSGSGTQFTLTISDLEPADAATYYCQNYYYSSSSITFGGGTEVVVK , I see its pEC50 listed as 9.76

Per the records, this binder ( 98G10-12 (antibody, V domains shown, also called 98G10 T75D (VH)) VH: QEQLEESGGDLVKPEGSLTLTCTASGFSFSASYWICWVRQAPGKGLEWIACIYGGSSGSAYYASWAKGRFTISKDSSTTVTLQMTSLTAADTATYFCARAGYYNYGSAGDIYPSSFKLWGPGTLVTVSS VL: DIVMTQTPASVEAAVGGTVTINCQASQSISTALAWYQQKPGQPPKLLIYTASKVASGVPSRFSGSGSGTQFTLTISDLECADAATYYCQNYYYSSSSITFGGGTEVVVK ) has pEC50 equal to 10.13

Just so you know, measured pEC50 for 98G10-4 (antibody, V domains shown, also called 98G10 T23K (VH), C80P (VL)) VH: QEQLEESGGDLVKPEGSLTLTCKASGFSFSASYWICWVRQAPGKGLEWIACIYGGSSGSAYYASWAKGRFTISKTSSTTVTLQMTSLTAADTATYFCARAGYYNYGSAGDIYPSSFKLWGPGTLVTVSS VL: DIVMTQTPASVEAAVGGTVTINCQASQSISTALAWYQQKPGQPPKLLIYTASKVASGVPSRFSGSGSGTQFTLTISDLEPADAATYYCQNYYYSSSSITFGGGTEVVVK came out at 9.75

The recorded pEC50 for entry 98G10-5 (antibody, V domains shown, also called 98G10 T18R/C80P (VL)) VH: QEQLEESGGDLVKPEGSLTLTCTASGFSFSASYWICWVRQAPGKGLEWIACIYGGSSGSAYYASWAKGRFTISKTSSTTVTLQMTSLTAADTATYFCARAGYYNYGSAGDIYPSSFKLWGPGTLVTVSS VL: DIVMTQTPASVEAAVGGRVTINCQASQSISTALAWYQQKPGQPPKLLIYTASKVASGVPSRFSGSGSGTQFTLTISDLEPADAATYYCQNYYYSSSSITFGGGTEVVVK equals 9.62
